target.system: T1, Human IGF-I R (Glu 31-Asn 932 with a polyhistidine tag at the C-terminus) (human, UniProt P08069 31-932)
T1 construct: range 31-932; Bought protein; captured on Ni-NTA biosensors for BLI; also called IGF1R; IGF-1R; not shown: C-terminal polyhistidine tag
T1 sequence (P08069 31-932 limits assumed): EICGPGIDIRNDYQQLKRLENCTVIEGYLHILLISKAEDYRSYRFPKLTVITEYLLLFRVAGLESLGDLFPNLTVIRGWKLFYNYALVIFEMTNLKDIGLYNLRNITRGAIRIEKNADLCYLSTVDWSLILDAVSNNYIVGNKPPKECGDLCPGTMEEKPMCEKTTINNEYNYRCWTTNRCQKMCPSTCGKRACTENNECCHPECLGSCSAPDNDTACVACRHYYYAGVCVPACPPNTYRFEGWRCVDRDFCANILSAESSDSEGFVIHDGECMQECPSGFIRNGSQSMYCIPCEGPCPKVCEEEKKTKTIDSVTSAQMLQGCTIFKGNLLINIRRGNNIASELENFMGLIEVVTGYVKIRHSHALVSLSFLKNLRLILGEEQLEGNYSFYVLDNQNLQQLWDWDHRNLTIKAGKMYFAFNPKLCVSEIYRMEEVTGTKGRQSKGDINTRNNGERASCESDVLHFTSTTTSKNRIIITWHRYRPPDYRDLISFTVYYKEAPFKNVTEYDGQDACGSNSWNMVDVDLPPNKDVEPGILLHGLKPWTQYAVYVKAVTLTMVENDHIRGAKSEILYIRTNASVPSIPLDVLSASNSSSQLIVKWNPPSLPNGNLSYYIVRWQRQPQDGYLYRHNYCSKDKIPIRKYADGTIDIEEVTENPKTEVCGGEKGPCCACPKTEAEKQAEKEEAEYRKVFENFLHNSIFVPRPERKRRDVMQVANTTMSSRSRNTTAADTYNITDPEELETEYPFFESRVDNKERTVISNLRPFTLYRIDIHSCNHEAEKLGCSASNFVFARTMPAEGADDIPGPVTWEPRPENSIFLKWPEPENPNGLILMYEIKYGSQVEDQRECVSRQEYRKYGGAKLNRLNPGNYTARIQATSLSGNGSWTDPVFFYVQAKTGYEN
method.notes: BLI (Octet RED96e), His-tagged IGF-1R on Ni-NTA sensors, Fab 0-100 nM, 1:1 global fit

{"columns": ["binder", "koff / s⁻¹"],
 "data": [
  ["C10 Fab (Fab, V domains shown) VH: QVELVESGGGVVQPGRSQRLSCAASGFTFSSAGMHWVRQAPGKGLEWVAIIWADGSSTYYADSVRGRFTISRDNSKNTLYLQMNSLRAEDTAVYFCARELGRRYFDLWGRGTLVSVSS VL: EIVLTQSPATLSLSPGERATLSCRASQSVSSYLAWYQQKPGQAPRLLIYDASKRATGIPARFSGSGSGTDFTLTISSLEPEDFAVYYCQQRSKYPPWTFGQGTKVESK", 0.000485],
  ["H11 Fab (Fab, V domains shown) VH: QVELVESGGGVVQPGRSQRLSCAASGFTFSSYGMHWVRQAPGKGLEWVATIWHDGSSTYYADSVRGRFTISRDNSKNTLYLQMNSLRAEDTAVYFCARELGRRYFDLWGRGTLVSVSS VL: EIVLTQSPATLSLSPGERATLSCRASQSVSSALAWYQQKPGQAPRLLIYDASKRATGIPARFSGSGSGTDFTLTISSLEPEDFAVYYCQQRGKYPPWTFGQGTKVESK", 0.000744],
  ["F02 Fab (Fab, V domains shown) VH: QVELVESGGGVVQPGRSQRLSCAASGFTFSSHGMHWVRQAPGKGLEWVATIWFDGSSTYYADSVRGRFTISRDNSKNTLYLQMNSLRAEDTAVYFCARELGRRYFDLWGRGTLVSVSS VL: EIVLTQSPATLSLSPGERATLSCRASQSVSSTLAWYQQKPGQAPRLLIYDASKRATGIPARFSGSGSGTDFTLTISSLEPEDFAVYYCQQRSKYPPWTFGQGTKVESK", 0.0023],
  ["B09 Fab (Fab, V domains shown) VH: QVELVESGGGVVQPGRSQRLSCAASGFTFSSHGMHWVRQAPGKGLEWVAIIAGDASTTYYADSVRGRFTISRDNSKNTLYLQMNSLRAEDTAVYFCARELGRRYFDLWGRGTLVSVSS VL: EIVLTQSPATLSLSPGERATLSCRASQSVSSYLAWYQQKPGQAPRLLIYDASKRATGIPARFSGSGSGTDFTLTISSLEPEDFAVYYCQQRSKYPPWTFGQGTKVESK", 0.000799],
  ["A11 Fab (Fab, V domains shown) VH: QVELVESGGGVVQPGRSQRLSCAASGFTFSSYGMHWVRQAPGKGLEWVAYIWFDGSSTYYADSVRGRFTISRDNSKNTLYLQMNSLRAEDTAVYFCARELGRRYFDLWGRGTLVSVSS VL: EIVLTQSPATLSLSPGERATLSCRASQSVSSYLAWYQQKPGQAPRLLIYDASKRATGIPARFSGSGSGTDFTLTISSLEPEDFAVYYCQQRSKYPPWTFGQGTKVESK", 0.00076],
  ["B10 Fab (Fab, V domains shown) VH: QVELVESGGGVVQPGRSQRLSCAASGFTFSSYGMHWVRQAPGKGLEWVATIWFDGSSTYYADSVRGRFTISRDNSKNTLYLQMNSLRAEDTAVYFCARELGRRYFDLWGRGTLVSVSS VL: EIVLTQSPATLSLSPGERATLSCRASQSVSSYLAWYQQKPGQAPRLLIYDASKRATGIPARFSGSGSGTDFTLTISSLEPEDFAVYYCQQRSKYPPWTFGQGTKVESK", 0.000826],
  ["E01 Fab (Fab, V domains shown) VH: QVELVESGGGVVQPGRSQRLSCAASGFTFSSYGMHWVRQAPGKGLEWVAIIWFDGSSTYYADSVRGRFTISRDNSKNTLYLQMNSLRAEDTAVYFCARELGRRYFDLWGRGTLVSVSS VL: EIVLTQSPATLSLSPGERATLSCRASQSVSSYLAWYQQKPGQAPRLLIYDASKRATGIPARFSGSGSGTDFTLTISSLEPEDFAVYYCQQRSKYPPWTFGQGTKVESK", 0.000298]
]}
